Tested on: HCC-70
PROCEDURE DETAILS: Cell growth assay
Assay type: cell-based
EXPERIMENTAL SETUP: Homo sapiens, HCC70, 72 h; HCC-70, RAF WT, RAS WT, 3-day; read-out: gIC50
Protocol: Growth was measured with CellTiter-Glo® (Promega) reagent per the manufacturer’s protocol, using a PerkinElmer EnVision™ reader at t = 0 and 72 h. IC50 values for cell growth inhibition (gIC50) were determined. (PDF) Click here for additional data file.
pIC50: −log10 of the molar value.
OBSERVABLE: pIC50

# pIC50 measured on HCC-70 for item CC(C)(C)c1nc(-c2cccc(NS(=O)(=O)c3c(F)cccc3F)c2F)c(-c2ccnc(N)n2)s1 [dabrafenib] = < 5.00

----------
Tested on: NCI-H82
PROCEDURE DETAILS: Cell growth assay
Assay type: cell-based
EXPERIMENTAL SETUP: Homo sapiens, 72 h; NCI-H82, RAF WT, RAS WT, 3-day; read-out: gIC50
OBSERVABLE: IC50

What the record says about CC(C)(C)c1nc(-c2cccc(NS(=O)(=O)c3c(F)cccc3F)c2F)c(-c2ccnc(N)n2)s1 [dabrafenib] : IC50 is > 10 µM

----------
TARGET OR TEST SYSTEM: BRK (h) (Homo sapiens, UniProt Q13882)
Sequence (Q13882 whole entry): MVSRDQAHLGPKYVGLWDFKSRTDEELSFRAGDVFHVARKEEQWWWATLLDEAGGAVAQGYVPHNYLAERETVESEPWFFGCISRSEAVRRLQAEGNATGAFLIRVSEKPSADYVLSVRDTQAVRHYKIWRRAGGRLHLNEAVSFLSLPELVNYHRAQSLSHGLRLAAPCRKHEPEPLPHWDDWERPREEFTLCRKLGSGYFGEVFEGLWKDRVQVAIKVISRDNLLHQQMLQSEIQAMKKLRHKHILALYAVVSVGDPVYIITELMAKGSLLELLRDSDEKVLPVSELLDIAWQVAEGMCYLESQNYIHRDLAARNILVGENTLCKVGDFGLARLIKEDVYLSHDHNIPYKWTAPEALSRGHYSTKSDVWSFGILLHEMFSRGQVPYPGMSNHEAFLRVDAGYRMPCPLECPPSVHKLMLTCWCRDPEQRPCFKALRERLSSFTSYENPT
OBSERVABLE: IC50 (µM)
Your answer should be a plain number; it is taken to be in µM.

What the record says about CC(C)(C)c1nc(-c2cccc(NS(=O)(=O)c3c(F)cccc3F)c2F)c(-c2ccnc(N)n2)s1 : IC50 is 0.079

----------
System: SJRH30
PROCEDURE DETAILS: Cell growth assay
Format: cell-based
EXPERIMENTAL SETUP: Homo sapiens, 72 h; SJRH30, RAF WT, RAS WT, 3-day; read-out: gIC50
OBSERVABLE: IC50

What the record says about CC(C)(C)c1nc(-c2cccc(NS(=O)(=O)c3c(F)cccc3F)c2F)c(-c2ccnc(N)n2)s1 : IC50 is > 10 µM

----------
Test system: SNU-398
PROCEDURE DETAILS: Cell growth assay
Type: cell-based
EXPERIMENTAL SETUP: Homo sapiens, 72 h; SNU-398, RAF WT, RAS WT, 3-day; read-out: gIC50
OBSERVABLE: IC50

What the record says about CC(C)(C)c1nc(-c2cccc(NS(=O)(=O)c3c(F)cccc3F)c2F)c(-c2ccnc(N)n2)s1 : IC50 is > 10 µM

----------
TARGET OR TEST SYSTEM: UniProtKB P36897
Sequence (P36897 34-503): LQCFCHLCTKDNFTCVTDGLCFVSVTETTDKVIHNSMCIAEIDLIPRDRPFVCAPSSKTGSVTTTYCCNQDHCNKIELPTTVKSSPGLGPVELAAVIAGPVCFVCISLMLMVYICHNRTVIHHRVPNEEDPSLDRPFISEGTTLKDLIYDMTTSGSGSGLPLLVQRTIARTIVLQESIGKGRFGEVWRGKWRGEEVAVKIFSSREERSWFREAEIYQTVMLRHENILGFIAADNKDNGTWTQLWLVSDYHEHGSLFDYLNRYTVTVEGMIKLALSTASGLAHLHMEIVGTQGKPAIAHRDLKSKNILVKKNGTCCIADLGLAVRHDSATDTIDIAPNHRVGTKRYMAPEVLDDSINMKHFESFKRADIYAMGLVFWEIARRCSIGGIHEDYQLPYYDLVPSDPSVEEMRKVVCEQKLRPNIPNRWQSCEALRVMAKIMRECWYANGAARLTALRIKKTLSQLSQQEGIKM
OBSERVABLE: IC50 (nM)
Your answer should be a plain number; it is taken to be in nM.

What the record says about CC(C)(C)c1nc(-c2cccc(NS(=O)(=O)c3c(F)cccc3F)c2F)c(-c2ccnc(N)n2)s1 : IC50 is 11

Reference source: paper PMC3701070
